Experiment: Metabolic stability in human liver microsomes assessed as compound remaining at 1 uM after 30 mins LC-MS analysis
Type: ADME, Microsome
Details: liver microsomes, read-out: Stability
Reported remaining at 0.5 h, 1 µM values follow for various compounds
// return numeric value only (unit: %, not printed)

Recorded results for 7 compounds are shown here.
O=C(NCc1ccc(S(=O)(=O)c2ccccc2)cc1)c1cc(-c2cccnc2)[nH]n1    67
O=C(NCc1ccc(S(=O)(=O)c2cc(F)cc(F)c2)cc1)c1ccc2nccn2c1    53
O=C(NCc1ccc(S(=O)(=O)c2ccccc2)cc1)c1cc2ccncc2o1    86
O=C(NCc1ccc(S(=O)(=O)c2ccc(N3CCOCC3)nc2)cc1)c1cc2ccncc2o1    51
O=C(NCc1ccc(S(=O)(=O)c2cc(F)cc(F)c2)cc1)c1cnc2nccn2c1    78
O=C(NCc1ccc(S(=O)(=O)c2ccc(N3CCOCC3)nc2)cc1)c1cnc2nccn2c1    86
O=C(NCc1ccc(S(=O)(=O)N2CCCCC2)cc1)c1ccc2ncsc2c1    24

Turning now to a further record.
Ask | Record request: remaining at 0.5 h, 1 µM value, item O=C(NCc1ccc(S(=O)(=O)c2cccc(C(F)(F)F)c2)cc1)c1cc2ccncc2s1
Reply | 43

====

Reported CLint scaled at 1 µM values follow for various compounds
Assay: Intrinsic clearance in human hepatocytes at 1 uM after 10 mins by LC-MS/MS analysis
Assay type: ADME, cell-based, Hepatocyte
Settings: read-out: CLH
// return numeric value only (unit: mL/min/kg, not printed)

O=C(NCc1ccc(S(=O)(=O)c2cccc(C(F)(F)F)c2)cc1)c1cc2cnccc2[nH]1    10
O=C(NCc1ccc(S(=O)(=O)c2ccc(N3CCOCC3)nc2)cc1)c1ccc2nccn2c1    10

Turning now to a further record.
Ask | Record request: CLint scaled at 1 µM value, item O=C(NCc1ccc(S(=O)(=O)c2cc(F)cc(F)c2)cc1)c1cc2ccncc2s1
Reply | 16

====

Experiment: Metabolic stability in human liver microsomes assessed as compound remaining at 1 uM after 30 mins LC-MS analysis
Assay type: ADME, Microsome
Conditions: liver microsomes, read-out: Stability
measured_endpoint: remaining at 0.5 h, 1 µM (%)
// return numeric value only (unit: %, not printed)

Recorded results for 4 compounds are shown here.
O=C(NCc1ccc(S(=O)(=O)c2ccc(C(F)(F)F)cc2)cc1)c1cc2cnccc2[nH]1    82
O=C(NCc1ccc(S(=O)(=O)c2cc(F)cc(F)c2)cc1)c1cc2cnccc2[nH]1    82
O=C(NCc1ccc(S(=O)(=O)N2CCCCC2)cc1)c1cc2cnccc2o1    46
O=C(NCc1ccc(S(=O)(=O)c2cc(F)cc(F)c2)cc1)c1cc2ccncc2o1    77

Turning now to a further record.
Ask | Record request: remaining at 0.5 h, 1 µM value, item O=C(NCc1ccc(S(=O)(=O)c2cccc(C(F)(F)F)c2)cc1)c1cnc2nccn2c1
Reply | 41

====

Test: Fraction unbound in human plasma at 5 uM after 4 hrs by LC-MS/MS analysis
Type: ADME, cell-free
Reported fraction unbound at 4 h, 5 µM values follow for various compounds

Recorded results for 10 compounds are shown here.
O=C(NCc1ccc(S(=O)(=O)c2cc(F)cc(F)c2)cc1)c1cnc2nccn2c1    0.122
O=C(NCc1ccc(S(=O)(=O)c2cc(F)cc(F)c2)cc1)c1cc2ccncc2s1    0.009
O=C(NCc1ccc(S(=O)(=O)c2ccc(N3CCOCC3)nc2)cc1)c1cc2ccncc2o1    0.005
N#CN=C(NCCCCCCOc1ccc(Cl)cc1)Nc1ccncc1    0.005
O=C(NCc1ccc(S(=O)(=O)c2cccc(C(F)(F)F)c2)cc1)c1cc2ccncc2o1    0.01
O=C(NCc1ccc(S(=O)(=O)c2cc(F)cc(F)c2)cc1)c1ccc2nccn2c1    0.06
O=C(NCc1ccc(S(=O)(=O)c2ccc(N3CCOCC3)nc2)cc1)c1cnc2nccn2c1    0.028
O=C(/C=C/c1cccnc1)NCCCCC1CCN(C(=O)c2ccccc2)CC1    0.007
O=C(NCc1ccc(S(=O)(=O)c2ccc(N3CCOCC3)nc2)cc1)c1cc2cnccc2[nH]1    0.011
O=C(NCc1ccc(S(=O)(=O)c2cccc(C(F)(F)F)c2)cc1)c1cc2ccncc2s1    0.004

Ask | Record request: fraction unbound at 4 h, 5 µM value, item O=C(NCc1ccc(S(=O)(=O)c2ccc(N3CCOCC3)nc2)cc1)c1ccc2nccn2c1
Reply | 0.012

Ask | Now give it for O=C(NCc1ccc(S(=O)(=O)c2cccc(C(F)(F)F)c2)cc1)c1cc2cnccc2[nH]1 too.
Reply | 0.006

====

Reported pIC50 values follow for various compounds
Molecular target: Nicotinamide phosphoribosyltransferase (Homo sapiens, UniProt P43490)
Sequence (P43490 whole entry): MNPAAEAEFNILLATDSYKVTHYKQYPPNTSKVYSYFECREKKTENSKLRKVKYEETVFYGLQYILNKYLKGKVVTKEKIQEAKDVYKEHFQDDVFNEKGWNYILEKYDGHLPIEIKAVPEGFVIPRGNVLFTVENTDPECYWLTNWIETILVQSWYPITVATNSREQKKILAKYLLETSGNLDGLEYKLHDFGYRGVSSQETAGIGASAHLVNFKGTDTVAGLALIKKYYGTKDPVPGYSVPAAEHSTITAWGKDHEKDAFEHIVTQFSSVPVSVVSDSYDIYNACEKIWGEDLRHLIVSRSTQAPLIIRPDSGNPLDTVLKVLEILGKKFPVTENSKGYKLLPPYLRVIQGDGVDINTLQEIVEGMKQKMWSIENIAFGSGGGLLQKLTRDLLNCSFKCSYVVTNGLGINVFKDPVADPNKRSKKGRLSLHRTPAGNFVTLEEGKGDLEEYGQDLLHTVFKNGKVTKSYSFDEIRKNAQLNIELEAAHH
Scale note: pIC50 = -log10(concentration in M).

Recorded results for 8 compounds are shown here.
O=C(NCc1ccc(S(=O)(=O)c2ccccc2)cc1)c1ccc2nncn2c1    6.43
Cn1c(C(=O)NCc2ccc(S(=O)(=O)c3ccccc3)cc2)cc2ccncc21    6.39
Cc1ccccc1S(=O)(=O)c1ccc(CNC(=O)c2cc3cnccc3[nH]2)cc1    7.92
O=C(NCc1ccc(S(=O)(=O)c2ccccc2)cc1)c1nc2ccncc2s1    6.68
O=C(NCc1ccc(S(=O)(=O)c2cccc(F)c2)cc1)c1cc2cnccc2[nH]1    8.30
O=C(NCc1ccc(S(=O)(=O)c2ccc(N3CCOCC3)nc2)cc1)c1cnc2nccn2c1    9.00
O=C(NCc1ccc(S(=O)(=O)c2ccccc2)cc1)c1cc2ncccc2s1    6.40
O=C(NCc1ccc(S(=O)(=O)N2CCCCC2)cc1)c1cc2cccnc2s1    8.10

Turning now to a further record.
Ask | Given the entry O=C(NCc1ccc(S(=O)(=O)c2ccc(N3CCOCC3)nc2)cc1)c1ccc2nccn2c1 , what pIC50 was observed with Nicotinamide phosphoribosyltransferase (Homo sapiens, UniProt P43490)?
Reply | 8.22

====

Experiment: Metabolic stability in mouse liver microsomes assessed as compound remaining at 1 uM after 30 mins LC-MS analysis
Format: ADME, Microsome
Conditions: liver microsomes, read-out: Stability
Hi! Could you tag entries with remaining at 0.5 h, 1 µM below 20% as Criterion met, and those at or above as Criterion not met? Much appreciated.

Examples with answers:
O=C(NCc1ccc(S(=O)(=O)N2CCCCC2)cc1)c1cc2ccncc2s1    Criterion met
O=C(NCc1ccc(S(=O)(=O)c2ccccc2)cc1)c1ccc2nccn2c1    Criterion met

Ask | I'd appreciate it if you could check whether O=C(NCc1ccc(S(=O)(=O)c2cc(F)cc(F)c2)cc1)c1ccc2nccn2c1 has remaining at 0.5 h, 1 µM smaller than 20%.
Reply | Criterion not met

Ask | Now give it for O=C(NCc1ccc(S(=O)(=O)N2CCCCC2)cc1)c1cnc2nccn2c1 too.
Reply | Criterion met

Ask | Now give it for O=C(NCc1ccc(S(=O)(=O)c2ccccc2)cc1)c1cc(-c2cccnc2)no1 too.
Reply | Criterion not met

Ask | Now give it for O=C(NCc1ccc(S(=O)(=O)c2cccc(C(F)(F)F)c2)cc1)c1cc2cnccc2[nH]1 too.
Reply | Criterion not met

Ask | Now give it for O=C(NCc1ccc(S(=O)(=O)c2ccccc2)cc1)c1c[nH]c2ccncc12 too.
Reply | Criterion not met

Ask | Now give it for O=C(NCc1ccc(S(=O)(=O)N2CCCCC2)cc1)c1cc2cnccc2o1 too.
Reply | Criterion met

Ask | Now give it for O=C(NCc1ccc(S(=O)(=O)N2CCCCC2)cc1)c1cc2ccncc2o1 too.
Reply | Criterion met

====

Assay: Cmax in NCR nude mouse at 10 mg/kg, po
Assay type: ADME, organism-based
Parameters: dose 10 mg/kg, route oral
Settings: in vivo
measured_endpoint: Cmax (nM)
// return numeric value only (unit: nM, not printed)

Ask | Record request: Cmax value, item O=C(NCc1ccc(S(=O)(=O)c2cc(F)cc(F)c2)cc1)c1ccc2nccn2c1
Reply | 1210

====

Reported CLint scaled at 1 µM values follow for various compounds
Test: Intrinsic clearance in CD-1 mouse hepatocytes at 1 uM after 10 mins by LC-MS/MS analysis
Assay type: ADME, cell-based, Hepatocyte
Conditions: read-out: CLH
// return numeric value only (unit: mL/min/kg, not printed)

Recorded results for 2 compounds are shown here.
O=C(/C=C/c1cccnc1)NCCCCC1CCN(C(=O)c2ccccc2)CC1    67
O=C(NCc1ccc(S(=O)(=O)c2ccc(N3CCOCC3)nc2)cc1)c1ccc2nccn2c1    43

Ask | Record request: CLint scaled at 1 µM value, item O=C(NCc1ccc(S(=O)(=O)c2cc(F)cc(F)c2)cc1)c1cnc2nccn2c1
Reply | 74

Ask | Now give it for O=C(NCc1ccc(S(=O)(=O)c2ccc(N3CCOCC3)nc2)cc1)c1cc2cnccc2[nH]1 too.
Reply | 57

Ask | Now give it for O=C(NCc1ccc(S(=O)(=O)c2cccc(C(F)(F)F)c2)cc1)c1cc2cnccc2[nH]1 too.
Reply | 60

Ask | Now give it for O=C(NCc1ccc(S(=O)(=O)c2ccc(N3CCOCC3)nc2)cc1)c1cc2ccncc2o1 too.
Reply | 48

Ask | Now give it for O=C(NCc1ccc(S(=O)(=O)c2cccc(C(F)(F)F)c2)cc1)c1cc2ccncc2s1 too.
Reply | 73
